FYI, the data here is from patent US8734777B2.

Entries and their pIC50
molecular target: HCV polymerase (NS5B570n-Con1) (Hepatitis C virus genotype 1b); construct: contains a 21 amino acid deletion at the C-terminus relative to the full-length HCV polymerase; 6-histidine (N); assay: HCV NS5B RNA polymerase activity assay
pIC50: −log10 of the molar value.

>  <Line notation>
COc1c(C(C)(C)C)cc(-n2ccc(=O)[nH]c2=O)c2ccc(-c3ccc(NS(C)(=O)=O)cc3)nc12

>  <Measured on>
HCV polymerase (NS5B570n-Con1) (Hepatitis C virus genotype 1b)

>  <pIC50>
9.70

$$$$
>  <Line notation>
COc1c(C(C)(C)C)cc(-c2ccc[nH]c2=O)c2ccc(-c3ccc(NS(C)(=O)=O)cc3)nc12

>  <Measured on>
HCV polymerase (NS5B570n-Con1) (Hepatitis C virus genotype 1b)

>  <pIC50>
9.22

$$$$
>  <Line notation>
COc1c(C(C)(C)C)cc(-c2ccc(C)[nH]c2=O)c2ccc(-c3ccc(NS(C)(=O)=O)cc3)nc12

>  <Measured on>
HCV polymerase (NS5B570n-Con1) (Hepatitis C virus genotype 1b)

>  <pIC50>
9.40

$$$$
